These measurements were taken from ChEMBL document CHEMBL1799922.

Activity reference
- protocolSummary: Stability of the compound in 10% aqueous ammonia buffer at pH 8 assessed as hydrolysis to 2-bromo-6-(1H-imidazol-1-yl)-7H-indeno[2,1-c]quinolin-7-one oxime at 1 mg at 37 degC by LC-MS analysis
- Type: physicochemical
- Parameters: scale not given: the % may be the effect or the level left
The answer is to be given in %; state only the numeric part.

compound	Activity [%]
CC1(OC(=O)CC(F)(F)F)c2ccccc2-c2c1c(-n1ccnc1)nc1ccc(Br)cc21 (centres undefined)	96
CCC(=O)O/N=C1\c2ccccc2-c2c1c(-n1ccnc1)nc1ccc(Br)cc21	95
CCCCC(=O)O/N=C1\c2ccccc2-c2c1c(-n1ccnc1)nc1ccc(Br)cc21	90

Now consider a different compound.
Request: Return reported Activity; argument: CC(C)(C)OC(=O)NC(Cc1cccc(F)c1)C(=O)O/N=C1\c2ccccc2-c2c1c(N1CCN(c3ccccn3)CC1)nc1ccc(Br)cc21 (centres undefined)
Response: 95

* * *

- protocolSummary: Stability of the compound in 10% aqueous ammonia buffer at pH 8 assessed as hydrolysis to 2-bromo-6-(1H-imidazol-1-yl)-7H-indeno[2,1-c]quinolin-7-one oxime at 1 mg at 37 degC by LC-MS analysis
- Format: physicochemical
- Parameters: scale not given: the % may be the effect or the level left
recordedEndpoint: Activity

compound	Activity
CC(C)(C)OC(=O)NCC(=O)O/N=C1\c2ccccc2-c2c1c(N1CCN(c3ccccn3)CC1)nc1ccc(Br)cc21	95%
CCCCCCCCC(=O)OC1(C)c2ccccc2-c2c1c(-n1ccnc1)nc1ccc(Br)cc21 (stereo not drawn)	90%
CC(=O)O/N=C1\c2ccccc2-c2c1c(-n1ccnc1)nc1ccc(Br)cc21	95%
CC(C)(C)OC(=O)NCC(=O)OC1(C)c2ccccc2-c2c1c(-n1ccnc1)nc1ccc(Br)cc21 (stereo not drawn)	97%

Now consider a different compound.
Request: Return reported Activity; argument: CC(=O)NCC(=O)O/N=C1\c2ccccc2-c2c1c(N1CCN(c3ccccn3)CC1)nc1ccc(Br)cc21
Response: 95%

* * *

- Test system: Mycobacterium tuberculosis
- protocolSummary: Antimicrobial activity against Mycobacterium tuberculosis H37Rv ATCC 27294 after 16 to 24 hrs by microplate alamar blue assay
- Format: functional
The source made the active and inactive calls. The calls are words filed in the database; no cut-off is given here.
recordedEndpoint: MIC

compound	recordedMeasurement
CCCCCC(=O)O/N=C1\c2ccccc2-c2c1c(N1CCN(c3ccccn3)CC1)nc1ccc(Br)cc21	3.16 µg/mL
O=C(/C=C/c1ccco1)O/N=C1\c2ccccc2-c2c1c(N1CCN(c3ccccn3)CC1)nc1ccc(Br)cc21	6 µg/mL
CCCCCCCCCCCCCC(=O)OC1(C)c2ccccc2-c2c1c(-n1ccnc1)nc1ccc(Br)cc21 (stereo not drawn)	inactive
CCCCCCCCCCCCCC(=O)O/N=C1\c2ccccc2-c2c1c(-n1ccnc1)nc1ccc(Br)cc21	inactive
CC(=O)O/N=C1\c2ccccc2-c2c1c(N1CCN(c3ccccn3)CC1)nc1ccc(Br)cc21	inactive
C[C@H](NC(=O)OC(C)(C)C)C(=O)O/N=C1\c2ccccc2-c2c1c(N1CCN(c3ccccn3)CC1)nc1ccc(Br)cc21	6 µg/mL
CN(C)C(=O)O/N=C1\c2ccccc2-c2c1c(N1CCN(c3ccccn3)CC1)nc1ccc(Br)cc21	1.56 µg/mL

Now consider a different compound.
Request: Return reported MIC; argument: CCCCCCCCC(=O)O/N=C1\c2ccccc2-c2c1c(N1CCN(c3ccccn3)CC1)nc1ccc(Br)cc21
Response: inactive
